Data credit: patent US5861480A

- Tested on: Verticillium albo-atrum K0937
- Experiment: Antifungal activity assay (microspectrophotometry), V albo-atrum
- Type: cell-based
- Experimental parameters: Medium B (1/2 PDB + 1 mM CaCl2 and 50 mM KCl), 48 h
Parameter measured: IC50 (growth inhibition) V albo-atrum

Substance	IC50 (growth inhibition) V albo-atrum
Ib-AMP3: Impatiens balsamina antimicrobial protein 3, purified from I balsamina seeds; amino acid sequence SEQ ID NO 12 (QYRHRCCAWGPGRKYCKRWC)	> 200 µg/mL

input: // returns reported IC50 (growth inhibition) V albo-atrum for input Ib-AMP2: Impatiens balsamina antimicrobial protein 2, purified from I balsamina seeds; amino acid sequence SEQ ID NO 11 (QYGRRCCNWGPGRRYCKRWC)
output: > 200 µg/mL

input: // returns reported IC50 (growth inhibition) V albo-atrum for input Ib-AMP1: Impatiens balsamina antimicrobial protein 1, purified from I balsamina seeds; amino acid sequence SEQ ID NO 10 (QWGRRCCGWGPGRRYCVRWC)
output: > 200 µg/mL

input: // returns reported IC50 (growth inhibition) V albo-atrum for input Ib-AMP4: Impatiens balsamina antimicrobial protein 4, purified from I balsamina seeds; amino acid sequence SEQ ID NO 13 (QWGRRCCGWGPGRRYCRRWC)
output: 50 µg/mL

* * *

- System: Fusarium culmorum IMI 180420
- Experiment: Antifungal activity assay (microspectrophotometry), F culmorum
- Format: cell-based
- Experimental parameters: Medium B (1/2 PDB + 1 mM CaCl2 and 50 mM KCl), 48 h
Parameter measured: IC50 (growth inhibition) F culmorum (µg/mL)
Answer format: numeric, µg/mL implied, no suffix.

Observe how each entry below is paired with its result.
Substance	Result units	Reported result
Ib-AMP3: Impatiens balsamina antimicrobial protein 3, purified from I balsamina seeds; amino acid sequence SEQ ID NO 12 (QYRHRCCAWGPGRKYCKRWC)	µg/mL	100
Ib-AMP4: Impatiens balsamina antimicrobial protein 4, purified from I balsamina seeds; amino acid sequence SEQ ID NO 13 (QWGRRCCGWGPGRRYCRRWC)	µg/mL	6

Could you now look at the following substance, please?
input: // returns reported IC50 (growth inhibition) F culmorum for input Ib-AMP1: Impatiens balsamina antimicrobial protein 1, purified from I balsamina seeds; amino acid sequence SEQ ID NO 10 (QWGRRCCGWGPGRRYCVRWC)
output: 50

* * *

- System: C sphaerospermum (Cladosnorium sphaerospermum KO791)
- Experiment: Antifungal activity assay (microspectrophotometry), C sphaerospermum
- Format: cell-based
- Experimental parameters: Medium B (1/2 PDB + 1 mM CaCl2 and 50 mM KCl), 48 h
# IC50 (growth inhibition) C sphaerospermum annotations
Answer format: numeric, µg/mL implied, no suffix.

Observe how each entry below is paired with its result.
Substance	Reported result
Ib-AMP1: Impatiens balsamina antimicrobial protein 1, purified from I balsamina seeds; amino acid sequence SEQ ID NO 10 (QWGRRCCGWGPGRRYCVRWC)	50
Ib-AMP3: Impatiens balsamina antimicrobial protein 3, purified from I balsamina seeds; amino acid sequence SEQ ID NO 12 (QYRHRCCAWGPGRKYCKRWC)	100

Could you now look at the following substance, please?
input: // returns reported IC50 (growth inhibition) C sphaerospermum for input Ib-AMP4: Impatiens balsamina antimicrobial protein 4, purified from I balsamina seeds; amino acid sequence SEQ ID NO 13 (QWGRRCCGWGPGRRYCRRWC)
output: 6

* * *

- Tested on: P digitatum (Penicillium dipitatum (K0879))
- Experiment: Antifungal activity assay (microspectrophotometry), P digitatum
- Type: cell-based
- Experimental parameters: Medium A (1/2 PDB), 48 h
# IC50 (growth inhibition) P digitatum annotations
Answer format: numeric, µg/mL implied, no suffix.

Observe how each entry below is paired with its result.
Substance	Result units	Reported result
Ib-AMP4: Impatiens balsamina antimicrobial protein 4, purified from I balsamina seeds; amino acid sequence SEQ ID NO 13 (QWGRRCCGWGPGRRYCRRWC)	µg/mL	3
Ib-AMP1: Impatiens balsamina antimicrobial protein 1, purified from I balsamina seeds; amino acid sequence SEQ ID NO 10 (QWGRRCCGWGPGRRYCVRWC)	µg/mL	3
Ib-AMP2: Impatiens balsamina antimicrobial protein 2, purified from I balsamina seeds; amino acid sequence SEQ ID NO 11 (QYGRRCCNWGPGRRYCKRWC)	µg/mL	6

Could you now look at the following substance, please?
input: // returns reported IC50 (growth inhibition) P digitatum for input Ib-AMP3: Impatiens balsamina antimicrobial protein 3, purified from I balsamina seeds; amino acid sequence SEQ ID NO 12 (QYRHRCCAWGPGRKYCKRWC)
output: 3
